All figures here come from ChEMBL document CHEMBL1201862.

# system: Rac GTPase-activating protein 1 (Homo sapiens, UniProt Q9H0H5)
# Sequence (Q9H0H5 whole entry): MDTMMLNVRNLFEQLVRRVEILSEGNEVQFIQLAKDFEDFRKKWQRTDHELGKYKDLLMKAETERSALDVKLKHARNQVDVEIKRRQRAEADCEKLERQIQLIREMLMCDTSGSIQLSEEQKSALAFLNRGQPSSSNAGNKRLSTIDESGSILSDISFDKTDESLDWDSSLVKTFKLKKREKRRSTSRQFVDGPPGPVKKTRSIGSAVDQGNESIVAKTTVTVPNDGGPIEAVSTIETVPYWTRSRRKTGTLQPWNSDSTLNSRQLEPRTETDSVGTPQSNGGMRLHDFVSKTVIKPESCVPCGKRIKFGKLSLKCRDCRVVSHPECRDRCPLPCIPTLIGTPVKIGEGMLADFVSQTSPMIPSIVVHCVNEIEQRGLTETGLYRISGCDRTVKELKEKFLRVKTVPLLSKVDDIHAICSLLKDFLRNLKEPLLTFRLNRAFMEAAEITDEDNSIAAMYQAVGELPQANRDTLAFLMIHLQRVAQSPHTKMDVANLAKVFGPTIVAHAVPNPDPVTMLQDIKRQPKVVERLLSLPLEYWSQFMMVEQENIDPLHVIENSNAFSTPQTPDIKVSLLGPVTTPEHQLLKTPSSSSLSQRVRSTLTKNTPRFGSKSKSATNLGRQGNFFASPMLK
# experiment-description: MgcRacGAP GTPase-activating activity inhibitors, confirmation, biochemical, ADP Hunter fluorescence, primary and confirmatory (AID 624330)
# Format: functional
Calls of active or inactive are those of the source.
Task for the reader: assign each of the following compounds its reported IC50.

Below, 6 compounds whose answers are already recorded.
In [3]: df
Out[3]:
                                   compound  readout_label       measurement
0     Cc1cc(O)c(C)c(O)c1/C=N/NC(=O)c1cccnc1           IC50   101 µM (active)
1  COc1ccccc1/C=C(/C(=O)OCC(=O)Nc1ccc(N(C)C)cc1)c1ccccc1           IC50    61 µM (active)
2    CCCCCCCCCCCCCCCC[N+](C)(C)Cc1ccc(F)cc1           IC50  83.4 µM (active)
3  CCN1/C(=C/c2ccc3cc(C)ccc3[n+]2CC)Sc2ccccc21           IC50  59.5 µM (active)
4  N=C1/C(=C\c2ccc(O)c(O)c2)C(=O)N=C2SC(CC(=O)N3CCOCC3)=NN12           IC50  63.6 µM (active)
5       COc1cccc(CN2CCN(Cc3cccc(F)c3)CC2)c1           IC50    86 µM (active)

I have 4 compounds here; please give me IC50 for each one.
1. CCCCN(C)CCNC(=O)CSCc1ccc(C)cc1
2. O=C(CNC1CCCC1)Nc1ccc(N2CCCCCC2)cc1
3. COc1ccc(C(=O)/C=C/c2ccc(O)cc2)c2c1CC(O)C(C)(C)O2 (stereo not given)
4. COc1ccc(/C(C#N)=C2C=C/C(=N/O)C=C/2)cc1

Output:
["220 µM (active)", "75.8 µM (active)", "56.9 µM (active)", "93 µM (active)"]

###

# system: E3 ubiquitin-protein ligase XIAP (Homo sapiens)
# Sequence (P98170 whole entry): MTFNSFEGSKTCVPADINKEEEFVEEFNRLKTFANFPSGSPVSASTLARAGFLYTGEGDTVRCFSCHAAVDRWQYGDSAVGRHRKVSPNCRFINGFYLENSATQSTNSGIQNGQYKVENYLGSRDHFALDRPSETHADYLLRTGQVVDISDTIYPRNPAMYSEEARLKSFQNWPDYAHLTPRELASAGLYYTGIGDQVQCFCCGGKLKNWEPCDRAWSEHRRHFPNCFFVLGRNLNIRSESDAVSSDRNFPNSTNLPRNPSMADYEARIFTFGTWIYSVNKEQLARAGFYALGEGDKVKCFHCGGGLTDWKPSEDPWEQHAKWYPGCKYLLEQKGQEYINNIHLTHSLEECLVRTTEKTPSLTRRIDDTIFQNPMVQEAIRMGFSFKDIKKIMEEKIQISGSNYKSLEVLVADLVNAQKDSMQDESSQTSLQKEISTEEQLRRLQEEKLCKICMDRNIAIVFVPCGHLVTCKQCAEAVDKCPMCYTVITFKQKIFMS
# experiment-description: Counter Screen using XIAP-Bir3 for Chemical Antagonists of Bir1/2 domains of IAP-family anti-apoptotic proteins. [Related pubchem assays (depositor defined):AID1018, AID1449, AID1514, AID1638, AID1749, AID1750, AID488957, AID488963]
Activity calls are given as the source filed them.
readout-label: IC50

Below, 4 compounds whose answers are already recorded.
compound	measurement
CN1CCN(c2ccccc2NC(=O)c2ccc(-c3cccc([N+](=O)[O-])c3)o2)CC1	> 100 µM (inactive)
CC[C@H]1OC(=O)[C@H](C)[C@@H](O[C@H]2C[C@@](C)(OC)[C@@H](O)[C@H](C)O2)[C@H](C)[C@@H](O[C@@H]2O[C@H](C)C[C@H](N(C)C)[C@H]2O)[C@](C)(O)C[C@@H](C)[C@@H]2N[C@@H](COCCOC)O[C@H]([C@H]2C)[C@]1(C)O [DIRITHROMYCIN]	> 100 µM (inactive)
CC(C)CC(NC(=O)c1ccco1)C(=O)Nc1ccc2c(c1)OCCO2 (stereo not given)	> 100 µM (inactive)
CCc1nnc(NS(=O)(=O)c2ccc(NC(=S)NC(=O)/C=C/c3ccc(C(C)C)cc3)cc2)s1	> 20 µM (inactive)

Input: I would be grateful if you could share the reported IC50 for `Cc1cc(S(=O)(=O)N2CCN(Cc3ccccc3)CC2)c(C)s1` .
Output: > 100 µM (inactive)

###

Task for the reader: assign each of the following molecules its reported EC50.
# experiment-description: inhibitors of SNCA 5'UTR-driven reporter translation, confirmation, H4 neuroglioma cells, luminescence (AID 1988)
# Assay type: functional, cell-based
Activity calls are given as the source filed them.

I have 6 molecules here; please give me EC50 for each one.
1. N#Cc1ccc(-c2cccs2)nc1SCc1cccnc1
2. Cc1ccccc1Cn1cc(NC(=O)c2noc(C(C)C)c2[N+](=O)[O-])cn1
3. O=C(Nc1ccccc1)c1cc([N+](=O)[O-])ccc1NC1CCCCC1
4. Cc1ccc(-c2nnc(SCC(=O)Nc3ccccc3F)o2)cc1
5. CCCCCCn1c(=O)c(C(=O)Nc2ncccc2O)c(O)c2ccccc21
6. CC(C)CN(Cc1cc(=O)oc2cc(-c3ccccc3)c(O)cc12)CC(C)C

Output:
["< 0.1 µM (active)", "> 120 µM (not active)", "> 120 µM (not active)", "< 0.1 µM (active)", "9.12 µM (active)", "> 120 µM (not active)"]

Input: I would be grateful if you could share the reported EC50 for `CCc1ccc(/C=C2/C(=O)N(c3ccccc3)C(=S)N2CC(=O)OC)s1` .
Output: 14.4 µM (active)

###

Task for the reader: assign each of the following molecules its reported IC50.
# system: Sentrin-specific protease 8 (Homo sapiens, UniProt Q96LD8);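 further: luminescence read-out of SENP8 inhibition, dose-response confirmation following an ultra-high-throughput screen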
# Sequence (Q96LD8 whole entry): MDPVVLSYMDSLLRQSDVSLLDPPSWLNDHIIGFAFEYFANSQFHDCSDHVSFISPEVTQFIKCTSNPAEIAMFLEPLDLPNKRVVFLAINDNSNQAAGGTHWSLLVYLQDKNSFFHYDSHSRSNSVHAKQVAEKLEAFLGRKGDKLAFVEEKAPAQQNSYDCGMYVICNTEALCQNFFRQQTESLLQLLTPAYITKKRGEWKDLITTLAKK
# Assay type: functional
Active and inactive are the calls of the source.

>>> df
                                   compound  readout_label       measurement
0  COc1ccc(S(=O)(=O)Nc2cc(SCC(=O)O)c(O)c3ccccc23)cc1           IC50  9.39 µM (active)

I have 5 molecules here; please give me IC50 for each one.
1. COc1cc(Cl)c(NC2=CC(=O)C(=O)c3ccccc32)c(OC)c1
2. COc1ccccc1CNC(=O)COc1ccccc1C(=O)c1cnn(-c2ccccc2)c1
3. Clc1ccc(-c2nnc(NC3=NCCCCC3)o2)cc1
4. O=C(/C=C/c1ccco1)Nc1ccc(Oc2ccccc2)cc1
5. O=C(COC(=O)c1ccc([N+](=O)[O-])s1)Nc1ccccc1

Output:
1: 14.5 µM (active); 2: 24.3 µM (active); 3: 29.8 µM (active); 4: 17.4 µM (active); 5: 4.04 µM (active)

###

# system: Heat shock factor protein 1 (Mus musculus)
# Sequence (P38532 whole entry): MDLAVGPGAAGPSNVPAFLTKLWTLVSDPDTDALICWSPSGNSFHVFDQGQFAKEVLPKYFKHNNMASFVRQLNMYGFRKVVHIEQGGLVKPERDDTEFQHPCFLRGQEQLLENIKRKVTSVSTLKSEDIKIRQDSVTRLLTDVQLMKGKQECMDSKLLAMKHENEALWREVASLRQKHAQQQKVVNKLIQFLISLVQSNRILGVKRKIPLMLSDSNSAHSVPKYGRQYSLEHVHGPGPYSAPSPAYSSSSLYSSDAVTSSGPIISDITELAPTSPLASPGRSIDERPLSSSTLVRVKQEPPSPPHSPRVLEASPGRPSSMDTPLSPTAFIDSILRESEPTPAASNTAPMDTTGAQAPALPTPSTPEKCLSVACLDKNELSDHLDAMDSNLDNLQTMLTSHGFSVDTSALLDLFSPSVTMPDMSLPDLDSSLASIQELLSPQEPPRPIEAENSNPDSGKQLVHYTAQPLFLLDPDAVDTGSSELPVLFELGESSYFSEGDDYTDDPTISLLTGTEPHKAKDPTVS
# experiment-description: HSF1 potentiators in luciferase reporter cells, confirmation, cell-based, NIH3T3, luminescence, dose retest (AID 435004);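 further: stress induced by proteasome inhibitor MG132 added 30 min after compound; luciferase reporter driven by HSF1 response element in NIH3T3 cells; actives raise luminescence as potentiators of the MG132 stress response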
# Type: functional
Calls of active or inactive are those of the source.
readout-label: EC50

In [3]: df
Out[3]:
                                   compound          measurement
0  C/C(=N\Nc1nc(C)cc(-c2ccccc2)n1)c1ccc(C)o1  > 260 µM (inactive)
1  Cc1ccccc1Oc1nc2c(C)cccn2c(=O)c1/C=C(\C#N)C(=O)Nc1c(C)n(C)n(-c2ccccc2)c1=O     12.1 µM (active)
2  CC(=O)c1ccc(N=C(S)N2C(C)CCCC2C)cc1 (configuration not stated)  > 260 µM (inactive)

I have 5 compounds here; please give me EC50 for each one.
1. Cn1c(=O)cc(SCC(=O)N2CCOCC2)c2ccc(Cl)cc21
2. N#CCCN1CCN(C(=S)c2ccc(-c3ccc(Cl)c(Cl)c3)o2)CC1
3. COc1ccccc1OCc1nnc(SCCN2CCOCC2)o1
4. Brc1c[nH]c2nc(SC/C=C/c3ccccc3)nc-2c1
5. C=CCOc1ccc(-c2nc3c(c(=O)[nH]c(=O)n3Cc3ccccc3)n2CCCOC)cc1

Output:
1: > 260 µM (inactive); 2: 3.72 µM (active); 3: > 260 µM (inactive); 4: 1.37 µM (active); 5: > 260 µM (inactive)

###

# system: Fatty acid synthase (Homo sapiens)
# Sequence (P49327 whole entry, the tested form may be a part): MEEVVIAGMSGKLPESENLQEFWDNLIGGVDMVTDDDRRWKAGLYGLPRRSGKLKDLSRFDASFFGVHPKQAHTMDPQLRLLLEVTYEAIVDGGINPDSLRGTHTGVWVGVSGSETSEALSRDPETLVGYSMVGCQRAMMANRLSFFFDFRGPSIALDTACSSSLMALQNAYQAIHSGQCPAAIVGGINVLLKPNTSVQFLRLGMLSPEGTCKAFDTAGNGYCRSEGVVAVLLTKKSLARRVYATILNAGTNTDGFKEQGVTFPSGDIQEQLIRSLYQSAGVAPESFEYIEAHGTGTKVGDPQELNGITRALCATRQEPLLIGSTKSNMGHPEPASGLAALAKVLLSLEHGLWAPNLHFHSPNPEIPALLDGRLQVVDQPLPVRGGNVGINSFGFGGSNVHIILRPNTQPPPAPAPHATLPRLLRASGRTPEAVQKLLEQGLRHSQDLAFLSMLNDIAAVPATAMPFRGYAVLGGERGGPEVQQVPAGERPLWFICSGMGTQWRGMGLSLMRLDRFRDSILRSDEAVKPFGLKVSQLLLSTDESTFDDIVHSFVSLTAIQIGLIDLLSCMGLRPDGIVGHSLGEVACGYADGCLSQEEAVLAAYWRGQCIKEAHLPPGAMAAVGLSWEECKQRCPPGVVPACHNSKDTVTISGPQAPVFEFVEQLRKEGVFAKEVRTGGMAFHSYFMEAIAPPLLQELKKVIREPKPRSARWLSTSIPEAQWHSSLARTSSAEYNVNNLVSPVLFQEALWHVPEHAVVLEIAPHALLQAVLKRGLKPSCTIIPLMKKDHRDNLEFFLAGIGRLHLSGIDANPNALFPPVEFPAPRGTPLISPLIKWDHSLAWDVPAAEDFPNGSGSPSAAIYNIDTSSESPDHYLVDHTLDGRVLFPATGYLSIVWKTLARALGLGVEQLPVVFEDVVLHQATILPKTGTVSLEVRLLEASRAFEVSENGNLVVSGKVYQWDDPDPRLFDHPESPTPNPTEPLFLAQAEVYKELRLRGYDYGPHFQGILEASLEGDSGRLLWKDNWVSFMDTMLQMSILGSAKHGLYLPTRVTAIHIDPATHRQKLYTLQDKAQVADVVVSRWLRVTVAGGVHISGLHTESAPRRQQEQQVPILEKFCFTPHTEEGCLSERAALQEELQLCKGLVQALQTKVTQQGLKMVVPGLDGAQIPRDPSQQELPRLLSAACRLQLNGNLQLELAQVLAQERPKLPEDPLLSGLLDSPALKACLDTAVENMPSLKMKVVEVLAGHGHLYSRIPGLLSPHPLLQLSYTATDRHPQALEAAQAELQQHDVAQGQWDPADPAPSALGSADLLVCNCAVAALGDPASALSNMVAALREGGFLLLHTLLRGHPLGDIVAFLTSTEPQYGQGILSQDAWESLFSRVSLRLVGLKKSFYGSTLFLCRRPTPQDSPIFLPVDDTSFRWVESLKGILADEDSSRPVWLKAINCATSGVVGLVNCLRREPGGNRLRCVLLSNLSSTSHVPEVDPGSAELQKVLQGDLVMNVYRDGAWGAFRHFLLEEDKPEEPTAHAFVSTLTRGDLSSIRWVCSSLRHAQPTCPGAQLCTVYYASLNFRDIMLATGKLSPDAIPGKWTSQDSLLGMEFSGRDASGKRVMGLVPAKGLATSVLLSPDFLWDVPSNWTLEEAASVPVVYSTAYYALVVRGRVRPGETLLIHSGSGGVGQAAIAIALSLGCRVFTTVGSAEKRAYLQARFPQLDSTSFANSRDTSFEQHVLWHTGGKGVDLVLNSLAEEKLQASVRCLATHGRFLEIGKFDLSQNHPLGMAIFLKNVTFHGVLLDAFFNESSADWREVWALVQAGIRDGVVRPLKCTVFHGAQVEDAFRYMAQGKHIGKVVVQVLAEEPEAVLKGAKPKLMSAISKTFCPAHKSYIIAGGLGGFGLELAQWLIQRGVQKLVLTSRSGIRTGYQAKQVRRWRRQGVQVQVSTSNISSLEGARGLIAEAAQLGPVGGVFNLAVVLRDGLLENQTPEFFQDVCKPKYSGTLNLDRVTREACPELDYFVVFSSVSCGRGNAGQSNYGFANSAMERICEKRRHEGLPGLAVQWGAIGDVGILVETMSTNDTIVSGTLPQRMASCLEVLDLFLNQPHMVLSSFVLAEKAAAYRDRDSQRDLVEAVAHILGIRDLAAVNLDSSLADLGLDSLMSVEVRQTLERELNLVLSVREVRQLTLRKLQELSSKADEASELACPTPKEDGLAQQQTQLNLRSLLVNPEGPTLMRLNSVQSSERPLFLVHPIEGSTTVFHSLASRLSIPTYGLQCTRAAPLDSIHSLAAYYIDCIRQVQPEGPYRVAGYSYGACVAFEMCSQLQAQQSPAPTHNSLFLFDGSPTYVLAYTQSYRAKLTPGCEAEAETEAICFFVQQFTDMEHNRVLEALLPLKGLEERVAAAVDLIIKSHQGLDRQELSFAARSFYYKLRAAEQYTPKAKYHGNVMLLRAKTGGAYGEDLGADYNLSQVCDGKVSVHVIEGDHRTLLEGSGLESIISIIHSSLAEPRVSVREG
# experiment-description: FAS thioesterase domain inhibitors, dose response, biochemical, endpoint fluorescence intensity, uHTS hits (AID 624327);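 further: fluorescence from hydrolysis of an O-methyl fluorescein acyl ester substrate by the enzyme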
# Format: functional
Activity calls are given as the source filed them.
readout-label: IC50

                                   compound       measurement
0  O=C(Cn1nc2ccccc2n1)N/N=C/c1cc(Cl)cc([N+](=O)[O-])c1O  8.31 µM (active)
1  COc1ccc2c(c1)OC[C@H]1[C@H]2N2C(=O)c3cc(OC)ccc3NC(=O)[C@@]2(C)[C@H]1c1ccccc1  12.7 µM (active)
2  Cc1cccc(C2Nc3ccccc3C(=O)N2NC(=O)c2ccc([N+](=O)[O-])cc2)n1 (centres undefined)  10.4 µM (active)
3  CCn1c(SCC(=O)Nc2ncc(C(F)(F)F)cc2Cl)nnc1-c1ccccc1  5.96 µM (active)
4  CCn1cc(C(=O)NCc2ccc(C)cc2)c(=O)c2cc(S(=O)(=O)N(C)C)ccc21  11.4 µM (active)
5  CN(C)C=O.O=C(COc1cccc(Cl)c1)Nc1nc(-c2ccc(S(=O)(=O)N3CCOCC3)cc2)cs1  4.49 µM (active)
6  COc1cccc(NC(=O)c2cc([N+](=O)[O-])ccc2NC(=O)CNCC2CCCO2)c1 (centres undefined)  12.3 µM (active)
7       N#Cc1cc2nc(O)c(O)nc2cc1[N+](=O)[O-]  19.6 µM (active)

Input: I would be grateful if you could share the reported IC50 for `CCOC(=O)[C@]12Cc3cc(OC)ccc3[C@H]1N(C1CCCCC1)C(=O)c1ccccc12` .
Output: 8.86 µM (active)
